Can you tell me EC50 for the items I'm about to list?
# experimental system: Adenosine receptor A1 (Rattus norvegicus, UniProt P25099)
# Sequence (P25099 whole entry): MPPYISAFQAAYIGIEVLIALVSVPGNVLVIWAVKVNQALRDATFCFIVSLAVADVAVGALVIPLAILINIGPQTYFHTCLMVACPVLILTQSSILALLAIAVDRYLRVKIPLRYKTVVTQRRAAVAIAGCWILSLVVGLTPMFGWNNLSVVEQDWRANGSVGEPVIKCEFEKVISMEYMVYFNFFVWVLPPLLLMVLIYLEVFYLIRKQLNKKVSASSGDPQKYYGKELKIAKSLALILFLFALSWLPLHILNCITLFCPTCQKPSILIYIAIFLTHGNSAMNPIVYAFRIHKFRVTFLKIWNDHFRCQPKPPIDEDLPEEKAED
# protocol notes: Activity at Adenosine A1 receptor of rat atria

Previously resolved entries follow.
compound=Nc1nc(N/N=C/C=C/c2ccco2)nc2c1ncn2[C@@H]1O[C@H](CO)[C@@H](O)[C@H]1O experimental_system="Adenosine receptor A1 (Rattus norvegicus, UniProt P25099)" reported_measurement="4.34 µM"
compound=Nc1nc(N/N=C/C=C/c2ccc([N+](=O)[O-])cc2)nc2c1ncn2[C@@H]1O[C@H](CO)[C@@H](O)[C@H]1O experimental_system="Adenosine receptor A1 (Rattus norvegicus, UniProt P25099)" reported_measurement="> 10 µM"
compound=Nc1nc(N/N=C/C=C/c2ccccc2[N+](=O)[O-])nc2c1ncn2[C@@H]1O[C@H](CO)[C@@H](O)[C@H]1O experimental_system="Adenosine receptor A1 (Rattus norvegicus, UniProt P25099)" reported_measurement="> 10 µM"
compound=COc1ccc(/C=C/C=N/Nc2nc(N)c3ncn([C@@H]4O[C@H](CO)[C@@H](O)[C@H]4O)c3n2)cc1 experimental_system="Adenosine receptor A1 (Rattus norvegicus, UniProt P25099)" reported_measurement="> 10 µM"
compound=COc1ccccc1/C=C/C=N/Nc1nc(N)c2ncn([C@@H]3O[C@H](CO)[C@@H](O)[C@H]3O)c2n1 experimental_system="Adenosine receptor A1 (Rattus norvegicus, UniProt P25099)" reported_measurement="1.97 µM"
compound=Nc1nc(N/N=C/C=C(c2ccccc2)c2ccccc2)nc2c1ncn2[C@@H]1O[C@H](CO)[C@@H](O)[C@H]1O experimental_system="Adenosine receptor A1 (Rattus norvegicus, UniProt P25099)" reported_measurement="> 1.86 µM"
compound=Nc1nc(N/N=C/c2ccco2)nc2c1ncn2[C@@H]1O[C@H](CO)[C@@H](O)[C@H]1O experimental_system="Adenosine receptor A1 (Rattus norvegicus, UniProt P25099)" reported_measurement="> 10 µM"

Field: next compound
// fetch Adenosine receptor A1 (Rattus norvegicus, UniProt P25099) EC50 for Cc1ccc(/C=N/Nc2nc(N)c3ncn(C4O[C@H](CO)[C@@H](O)[C@H]4O)c3n2)cc1 (stereo partly drawn) > 10 µM
